TARGET OR SYSTEM: T1, GRIP1_3, Q9Y3R0
T1 sequence (Q9Y3R0 247-346, limits assumed, looked up): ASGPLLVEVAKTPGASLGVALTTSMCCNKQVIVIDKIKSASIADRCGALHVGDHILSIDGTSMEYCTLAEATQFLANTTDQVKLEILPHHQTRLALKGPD
EXPERIMENT: holdup assay
Parameters: key: below the threshold = too weak to quantify, mostly under pKd 3.1 to 4
CONDITION: plain residues with an end cap or a label only (N-terminal biotin on a linker: ahx)
RECORDED ENDPOINT: pKd

YNSFLSVTTV [PDZRN3, Q9UPQ7]    below the threshold
HSATSVHTSV [MTMR1, Q13613]    below the threshold
SAPATLSSRA [PDLIM2, Q96JY6]    below the threshold
AKPQPVDSWV [ARVCF, O00192]    below the threshold
VNENQKEYFF [CNTNAP4, Q9C0A0]    below the threshold

Entry under review: KEYDDELTFF [USH1C, Q9Y6N9] . Reported pKd? below the threshold

Follow-up item: KDECVIATEV [DLL1, O00548] below the threshold

Follow-up item: SKKNELFSNL [NHERF1, O14745] below the threshold

Follow-up item: PKMKLNETSF [SHKBP1, Q8TBC3] below the threshold

Follow-up item: ADENEQVSAV [RAPGEF6, Q8TEU7] below the threshold
